- Test system: P388
- assay.notes: Growth inhibition of mouse P388 cells
- Format: functional
- condition.info: read-out: ED50 (the source's name)
pEC50: −log10 of the molar value.
Reported pEC50 values for a set of compounds

| smiles | pEC50 |
| --- | --- |
| C[C@]12Cc3nc4c(nc3C[C@@H]1CC[C@@H]1[C@@H]2CC[C@]2(C)C(=O)CC[C@@H]12)C[C@@]1(C)[C@@H](CC[C@@H]2[C@@H]1CC[C@]1(C)C(=O)CC[C@@H]21)C4 | 3.92 |
| C[C@@H]1[C@]2(O[C@H]3C=C4[C@@H]5CC[C@H]6Cc7nc8c(nc7C[C@]6(C)[C@H]5C[C@@H](O)[C@]4(C)[C@]31O)C[C@@H]1CC[C@H]3C4=C[C@@H]5O[C@]6(O[C@](C)(CO)C[C@H]6O)[C@@H](C)[C@]5(O)[C@@]4(C)[C@H](O)C[C@@H]3[C@@]1(C)C8)O[C@](C)(CO)C[C@H]2O | 7.12 |
| C[C@@H]1[C@]2(O[C@H]3C=C4[C@@H]5CC[C@H]6Cc7nc8c(nc7C[C@]6(C)[C@H]5C[C@@H](O)[C@]4(C)[C@]31O)C[C@@H]1CC[C@H]3C4=CC[C@@H]5[C@H](C)[C@@]6(OC[C@]45C(=O)C[C@@H]3[C@@]1(C)C8)OC(C)(C)C[C@H]6O)O[C@](C)(CO)C[C@H]2O | 9.00 |
| C[C@]12Cc3nc4c(nc3C[C@@H]1CC[C@@H]1[C@@H]2[C@@H](O)C[C@]2(C)/C(=C/[C@@H]3CC(=O)C=CO3)CC[C@@H]12)C[C@@]1(C)[C@@H](CC[C@@H]2[C@@H]1[C@@H](O)C[C@]1(C)/C(=C/[C@H]3CC(=O)C=CO3)CC[C@@H]21)C4 | 4.60 |
| C[C@]12Cc3nc4c(nc3C[C@@H]1CC[C@@H]1[C@@H]2CC[C@]2(C)C(OS(=O)(=O)C(F)(F)F)=CC[C@@H]12)C[C@@]1(C)[C@@H](CC[C@@H]2[C@@H]1CC[C@]1(C)C(OS(=O)(=O)C(F)(F)F)=CC[C@@H]21)C4 | 4.38 |
| CC(=O)O[C@H]1CC[C@H]2[C@@H]3CC[C@H]4Cc5nc6c(nc5C[C@]4(C)[C@H]3CC[C@]12C)C[C@@H]1CC[C@@H]2[C@H](CC[C@]3(C)[C@@H](OC(C)=O)CC[C@@H]23)[C@@]1(C)C6 | 4.04 |
| C[C@]12Cc3nc4c(nc3C[C@@H]1CC[C@H]1[C@H]3CC=C(c5ccc(=O)oc5)[C@@]3(C)CC[C@@H]12)C[C@@]1(C)[C@@H](CC[C@H]2[C@H]3CC=C(c5ccc(=O)oc5)[C@@]3(C)CC[C@@H]21)C4 | 4.24 |

All values here come from ChEMBL document CHEMBL2062447.
